Parameter Ki: see the listing below.
# Tested target: stromelysin (Homo sapiens)
# Sequence (P08254 100-477): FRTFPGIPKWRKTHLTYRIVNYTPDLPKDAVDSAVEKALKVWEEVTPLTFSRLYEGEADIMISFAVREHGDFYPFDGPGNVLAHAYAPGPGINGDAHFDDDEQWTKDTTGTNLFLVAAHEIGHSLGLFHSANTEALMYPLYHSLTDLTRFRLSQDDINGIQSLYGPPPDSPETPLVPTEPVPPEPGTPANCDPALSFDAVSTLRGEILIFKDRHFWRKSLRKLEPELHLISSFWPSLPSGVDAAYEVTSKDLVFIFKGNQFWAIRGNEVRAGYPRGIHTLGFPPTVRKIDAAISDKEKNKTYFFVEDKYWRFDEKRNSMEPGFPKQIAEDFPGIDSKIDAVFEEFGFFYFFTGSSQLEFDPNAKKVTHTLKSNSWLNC
# Protocol description: Stromelysin inhibition assay (HPLC/fluorometric determination of remaining peptide substrate)
# Type: biochemical
# Assay context: SLN = stromelysin; substrate 5 μM, enzyme 1.5 nM
Please state the figure in µM; there is no need to write the unit.

Field: example entries. Status: answers known.
1. C[C@@H](N[C@@H](CCCCCCCCCN)C(=O)N[C@@H](CCCNC(=N)N)C(=O)Nc1ccccc1)C(=O)O | 0.37
2. CCCCCCCC[C@H](N[C@H](C)C(=O)O)C(=O)N[C@@H](CCCNC(=N)N)C(=O)Nc1ccccc1 | 1.6
3. CC(C)C[C@H](NC(=O)[C@H](CCCCCCCCCN)N[C@H](C)C(=O)O)C(=O)Nc1ccccc1 | 0.24
4. CCCCCCCC[C@H](N[C@H](C)C(=O)O)C(=O)N[C@@H](CC(C)C)C(=O)Nc1ccccc1 | 0.57

Okay, next one:
CCCCCCCCCC[C@H](N[C@H](C)C(=O)O)C(=O)N[C@@H](CC(C)C)C(=O)Nc1ccccc1 yielded Ki of 0.85

----------
Parameter Ki: see the listing below.
# Tested target: gelatinase
# Protocol description: Gelatinase inhibition assay with fluorogenic Dnp-peptide substrate (method of Stack et al)
# Assay type: biochemical
# Assay context: Gel = gelatinase
Please state the figure in µM; there is no need to write the unit.

Field: example entries. Status: answers known.
1) CCCCCCCCCC[C@H](N[C@H](C)C(=O)O)C(=O)N[C@@H](CC(C)C)C(=O)Nc1ccccc1 | 0.56
2) CCCCCCCC[C@H](N[C@H](C)C(=O)O)C(=O)N[C@@H](CC(C)C)C(=O)Nc1ccccc1 | 0.34
3) CC(C)C[C@H](NC(=O)[C@H](CCCCCCCCCN)N[C@H](C)C(=O)O)C(=O)Nc1ccccc1 | 0.5
4) C[C@@H](N[C@@H](CCCCCCCCCN)C(=O)N[C@@H](CCCNC(=N)N)C(=O)Nc1ccccc1)C(=O)O | 0.11

CCCCCCCC[C@H](N[C@H](C)C(=O)O)C(=O)N[C@@H](CCCNC(=N)N)C(=O)Nc1ccccc1 yielded Ki of 0.12

Hello, the source for this data is patent US6090785A, in case you need it.
